So I've got MOT readings for Prothrombin (Rattus norvegicus) (UniProt P18292), take a look.
I only need the number, in min, no unit after it.

The cases that follow already have their MOT on record.
compound | targetOfAssay | readingUnit | MOT
N=C(N)NCCCC(NC(=O)[C@@H]1CC[C@H]2CN(C(=O)CCc3ccccn3)CC(=O)N21)C(=O)c1nccs1 (some centres undefined) | Prothrombin (Rattus norvegicus) (UniProt P18292) | min | 47.6
N=C(N)NCCCC(NC(=O)[C@@H]1CC[C@H]2CN(C(=O)CCOc3ccccc3)CC(=O)N21)C(=O)c1nccs1 (some centres undefined) | Prothrombin (Rattus norvegicus) (UniProt P18292) | min | 47.7

The compound N=C(N)NCCCC(NC(=O)[C@@H]1CC[C@H]2CN(C(=O)c3ccccc3)CC(=O)N21)C(=O)c1nccs1 (some centres undefined) on Prothrombin (Rattus norvegicus) (UniProt P18292): MOT was 45.8

====

targetOfAssay: Prothrombin (Rattus norvegicus)
measuredAttribute: MOT (min)
I only need the number, in min, no unit after it.

molecule | targetOfAssay | MOT / min
N=C(N)NCCCC(NC(=O)[C@@H]1CC[C@H]2CN(C(=O)CCc3cccc4ccccc34)CC(=O)N21)C(=O)c1nccs1 (some centres undefined) | Prothrombin (Rattus norvegicus) | 33.2
N=C(N)NCCCC(NC(=O)[C@@H]1CC[C@H]2CN(CCCc3ccccc3)CC(=O)N21)C(=O)c1nccs1 (some centres undefined) | Prothrombin (Rattus norvegicus) | 28.3
N=C(N)NCCCC(NC(=O)[C@@H]1CC[C@H]2CN(C(=O)CCC3CCCCC3)CC(=O)N21)C(=O)c1nccs1 (some centres undefined) | Prothrombin (Rattus norvegicus) | 25.4
N=C(N)NCCCC(NC(=O)[C@@H]1CC[C@H]2CN(C(=O)CCc3ccccc3)CC(=O)N21)C(=O)c1nccs1 (some centres undefined) | Prothrombin (Rattus norvegicus) | 42.2
NC(N)=NCCCC(NC(=O)[C@@H]1CC[C@H]2CN(C(=O)[C@@H](N)Cc3ccc(F)cc3)CC(=O)N21)C(=O)c1nccs1 (some centres undefined) | Prothrombin (Rattus norvegicus) | 47.7
N=C(N)NCCCC(NC(=O)[C@@H]1CC[C@H]2CN(C(=O)COc3ccccc3)CC(=O)N21)C(=O)c1nccs1 (some centres undefined) | Prothrombin (Rattus norvegicus) | 37.8

Okay, next one:
The molecule NC(N)=NCCCC(NC(=O)[C@@H]1CC[C@H]2CN(C(=O)[C@@H](N)Cc3ccc(O)cc3)CC(=O)N21)C(=O)c1nccs1 (stereo in doubt; 32) on Prothrombin (Rattus norvegicus): MOT was 53

====

targetOfAssay: Prothrombin (Rattus norvegicus)
Recorded TT by entry
I only need the number, in s, no unit after it.

compound | TT [s]
N=C(N)NCCCC(NC(=O)[C@@H]1CC[C@H]2CN(C(=O)CCOc3ccccc3)CC(=O)N21)C(=O)c1nccs1 (some centres not stated) | 276
NC(N)=NCCCC(NC(=O)[C@@H]1CC[C@H]2CN(C(=O)[C@@H](N)Cc3ccc(O)cc3)CC(=O)N21)C(=O)c1nccs1 (stereo in doubt; 32) | 433
N=C(N)NCCCC(NC(=O)[C@@H]1CC[C@H]2CN(C(=O)[C@@H](O)c3ccccc3)CC(=O)N21)C(=O)c1nccs1 (stereo in doubt; 29) | 476

Okay, next one:
# TT (compound: N=C(N)NCCCC(NC(=O)[C@@H]1CC[C@H]2CN(C(=O)c3ccccc3)CC(=O)N21)C(=O)c1nccs1 (some centres not stated) ) is 144

meta.source: ChEMBL document CHEMBL1130670
